B1: CPEB3 Ribozyme (parent)
chain: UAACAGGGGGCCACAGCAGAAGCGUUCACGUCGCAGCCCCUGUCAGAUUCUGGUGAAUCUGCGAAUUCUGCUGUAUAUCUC

Variants of: B1
assayText: self-cleavage, relative activity (ratio to wild type); higher = more cleavage; in vitro, sequencing
Recorded self-cleavage values for a group of variants are listed next.

Worked examples follow.
macromoleculeSequence	result
UAACAGGGGGCCACAGCAGUAGAGUUCACGUCGCAGCCCCUGUCAGAUUCUGGUGAAUCUGCGAAUUCUGCUGUAUAUCUC [A20U C23A]	0.22
UAACGGGGGGCCACAGCAGAAGCGUUCACGUCGCAGCGCCUGUCAGAUUCUGGUGAAUCUGCGAAUUCUGCUGUAUAUCUC [A5G C38G]	0.37
UAACAGGGGGCCACAGCAGAAGCGUUCACGUCGCUGCCCCUGUCAGAAUCUGGUGAAUCUGCGAAUUCUGCUGUAUAUCUC [A35U U48A]	0.32

QUERY: Which self-cleavage value belongs to UAACAGGGGGCCACAGCAGAAGCGUUCACGUCGCAGCCUCUGUCAGAUUCUGGUGAAUCAGCGAAUUCUGCUGUAUAUCUC [C39U U60A] ?
RESULT: 0.43

QUERY: Any idea what its self-cleavage is? The variant is UAACAGGGGGCCACAGCAGAAGCGUUCCCGUCGCUGCCCCUGUCAGAUUCUGGUGAAUCUGCGAAUUCUGCUGUAUAUCUC [A28C A35U]
RESULT: 0.27

QUERY: Return reported self-cleavage; argument: UAACAGGGGGCCACAGCAGAAGCGUUCACGUCGCAGCCCCUGUCAGAGUCUGGUGAAUCGGCGAAUUCUGCUGUAUAUCUC [U48G U60G]
RESULT: 0.22

QUERY: Report self-cleavage for UAACAGGGGGCCACAGCAGAAGCGUUCACGUCGCAGCCCCUGUCAGGUUCUGGUGAACCUGCGAAUUCUGCUGUAUAUCUC [A47G U58C] please.
RESULT: 1.1

QUERY: What measured self-cleavage goes with UAACAGGGGGCCACAGCAGAAGCGUUCACGUCGCAGCCCCUGCCAGAUUCUGGUGAAUCUGCGAAUUCUUCUGUAUAUCUC [U43C G70U] ?
RESULT: 0.18

QUERY: Reported self-cleavage, variant UAACAGGGGGCCACAGCAGAAGCGCUCACGUCGCAGCCCCUGUCAGAUUCUGGUAAAUCUGCGAAUUCUGCUGUAUAUCUC [U25C G55A] : ____
RESULT: 0.28

QUERY: Quick one: self-cleavage of UAACAGGGGGCCACAGCAGAAACGUUCACGUCGCAGCCCCUGUCAGAUUCUGGUGAAUCUGCGAGUUCUGCUGUAUAUCUC [G22A A65G] ?
RESULT: 0.23

QUERY: Would you kindly share the measured self-cleavage for UAACAGGGGGCCACAGCUGAAGCGUUCACGUCGCAGCCCCUGUCAGAUUCUGGUGAAUCUACGAAUUCUGCUGUAUAUCUC [A18U G61A] ?
RESULT: 0.3

QUERY: Which self-cleavage is reported for this variant? UAACAGGGGGCCACAGCAGAAGCGUUCACGUCGAAGCCCCUGUCAGAUUCUGGUGAAUCUGCGAAUACUGCUGUAUAUCUC [C34A U67A]
RESULT: 0.33

QUERY: # input variant: UAACAGGAGGCCACAGCAGAAGCGUUCACGUCGCAGCCCCUGUCAGAUUCUGGUGAAUCUGCGAAUUCUGCCGUAUAUCUC [G8A U72C] ; wanted: its self-cleavage
RESULT: 0.26
